// data source = patent US7943611B2

target: α1-subunit of the GABAA receptor (Rattus norvegicus); construct: the cerebellum (tissue that mostly contains α1-GABAA receptor); from tissue; host or cells: rat cerebellum membranes; assay: Ligand-binding assay, radiolabeled flumazenil competition, cerebellum membranes; details: 10^−7 M test compound, 1 nM radiolabeled flumazenil, read-out: % Inhib 10^−7M (affinity for the α1-subunit of the GABAA receptor)
property.name: inhibition at 0.1 µM

The value of inhibition at 0.1 µM measured for the molecule Cc1ccc(-c2nc3ccc(C)cn3c2CC(=O)NN)cc1 [Example 3] turned out to be 55.9%

Consider Cc1ccc(-c2nc3ccc(C)cn3c2CC(=O)N/N=C/c2ccc(Cl)cc2)cc1 [Example 7] . Its measured inhibition at 0.1 µM is 0.9%

Just so you know, measured inhibition at 0.1 µM for CC(C)=NNC(=O)Cc1c(-c2ccc(C)cc2)nc2ccc(C)cn12 [Example 9] came out at 24.2%

Cc1ccc(-c2nc3ccc(C)cn3c2CC(=O)N(C)N)cc1 [Example 6] has a reported inhibition at 0.1 µM of 59.1%

Form: molecule = C/C=N/NC(=O)Cc1c(-c2ccc(C)cc2)nc2ccc(C)cn12 [Example 8] ; inhibition at 0.1 µM = 25.2%

----------
Please provide measured % Inhib 10^−7M (affinity for the α2-subunit of the GABAA receptor) for the entries that follow.
test system: α2-subunit of the GABAA receptor; assay: Ligand-binding assay, radiolabeled flumazenil competition, spinal cord membranes; conditions: 10^−7 M test compound; rat spinal cord membranes; 1 nM radiolabeled flumazenil
Answer format: numeric, % implied, no suffix.

% Inhib 10^−7M (affinity for the α2-subunit of the GABAA receptor) reported for this molecule Cc1ccc(-c2nc3ccc(C)cn3c2CC(=O)N(C)N)cc1 : 2.0

C/C=N/NC(=O)Cc1c(-c2ccc(C)cc2)nc2ccc(C)cn12 has a reported % Inhib 10^−7M (affinity for the α2-subunit of the GABAA receptor) of 11.2

Entry under test: Cc1ccc(-c2nc3ccc(C)cn3c2CC(=O)N(C)C)cc1 [Zolpidem, reference compound] . Its % Inhib 10^−7M (affinity for the α2-subunit of the GABAA receptor) was 19.9

Entry under test: CC(C)=NNC(=O)Cc1c(-c2ccc(C)cc2)nc2ccc(C)cn12 . Its % Inhib 10^−7M (affinity for the α2-subunit of the GABAA receptor) was 21.9

----------
Test system: α2-subunit of the GABAA receptor
Experiment: Ligand-binding assay, radiolabeled flumazenil competition, spinal cord membranes
Conditions: 10^−5 M test compound; rat spinal cord membranes; 1 nM radiolabeled flumazenil
Method: a) Ligand-Binding Assays. Determination of the Affinity of Test Compounds for α1- and α2-GABAA Receptor Male Sprague-Dawley rats weighing 200-250 g at the time of experiment were used. […] Affinity was determined by competitive tests using radiolabeled flumazenil as ligand. […] The next day the plates were counted using a Perkin-Elmer Microbeta scintillation counter. […]
property.name: % Inhib 10^−5M (affinity for the α2-subunit of the GABAA receptor) (%)
Kindly answer with a numeric value in %, unit omitted.

What the record says about Cc1ccc(-c2nc3ccc(C)cn3c2CC(=O)N(C)N)cc1 [Example 6] : % Inhib 10^−5M (affinity for the α2-subunit of the GABAA receptor) is 71.6

Recorded % Inhib 10^−5M (affinity for the α2-subunit of the GABAA receptor) (compound C/C=N/NC(=O)Cc1c(-c2ccc(C)cc2)nc2ccc(C)cn12 [Example 8] ): 88.6

// % Inhib 10^−5M (affinity for the α2-subunit of the GABAA receptor) value for Cc1ccc(-c2nc3ccc(C)cn3c2CC(=O)N(C)C)cc1 [Zolpidem, reference compound] : 74.1

Looking up CC(C)=NNC(=O)Cc1c(-c2ccc(C)cc2)nc2ccc(C)cn12 [Example 9] , I found its % Inhib 10^−5M (affinity for the α2-subunit of the GABAA receptor) recorded as 86.6
